Data provenance: ChEMBL document CHEMBL4689842

system: U2OS; assay: Multiplex assay against U2OS; type: toxicity, cell-based; conditions: human, 12 h, 10 µM, compound concentration 10 uM, replicate 1
Measured Population Mitochondria Different-Phenotype (%) accompanies every entry in the list below.
Please state the figure in %; there is no need to write the unit.

COc1cc2c(Nc3ccc(NC(=O)c4ccccc4)cc3)ncnc2cc1OCCCN1CCOCC1 :: 24

Sure, the documented Population Mitochondria Different-Phenotype (%) for CNC(=O)c1cc(Oc2ccc(NC(=O)Nc3cc(C(C)(C)C)nn3-c3ccc4ncccc4c3)c(F)c2)ccn1 is 54

Sure, the documented Population Mitochondria Different-Phenotype (%) for O=C(O)c1ccc2cc(-c3ccc(O)c(C45CC6CC(CC(C6)C4)C5)c3)ccc2c1 is 15

Sure, the documented Population Mitochondria Different-Phenotype (%) for CC(=O)c1cc(-c2cc(C(=O)NC3CC3)ccc2C)c2ncccn12 is 9

Sure, the documented Population Mitochondria Different-Phenotype (%) for CCn1c(-c2nonc2N)nc2cnc(Oc3cccc(NC(=O)c4ccc(OCCN5CCOCC5)cc4)c3)cc21 [GSK-269962A] is 94

---

tested on: HEK-293T; test: Multiplex assay against HEK293T; type: toxicity, cell-based; conditions: human, 24 h, 10 µM, compound concentration 10 uM, replicate 1
parameter: Population Apoptotic (%)

COc1cc2c(Nc3ccc(NC(=O)c4ccccc4)cc3)ncnc2cc1OCCCN1CCOCC1 :: 9%
Cc1nc(Cc2cccc(C(F)(F)F)c2)sc1-c1ccc(C(N)=O)nc1 [TP-024n] :: 51%
CC(=O)O[C@H]1C(=O)[C@@]2(C)[C@H]([C@H](OC(=O)c3ccccc3)[C@]3(O)C[C@H](OC(=O)[C@H](O)[C@@H](NC(=O)c4ccccc4)c4ccccc4)C(C)=C1C3(C)C)[C@]1(OC(C)=O)CO[C@@H]1C[C@@H]2O [PACLITAXEL] :: 22% [middle of 4 runs]

Sure, the documented Population Apoptotic (%) for CN(C)CCOc1ccc(-c2nc(-c3ccncc3)c(-c3ccc4c(c3)CC/C4=N\O)[nH]2)cc1 [SB590885] is 20%

Sure, the documented Population Apoptotic (%) for CN(C)C/C=C/C(=O)Nc1cc2c(Nc3ccc(F)c(Cl)c3)ncnc2cc1O[C@H]1CCOC1.O=C(O)/C=C\C(=O)O.O=C(O)/C=C\C(=O)O [AFATINIB DIMALEATE] is 39%

Sure, the documented Population Apoptotic (%) for CCOc1cc(N2CCC(O)CC2)ccc1Nc1ncc2c(n1)N(C1CCCC1)CCC(=O)N2C is 19%

Sure, the documented Population Apoptotic (%) for c1ccc2oc(-c3csc(C4CCN(Cc5nc6ncccc6[nH]5)CC4)n3)cc2c1 is 16%

---

tested on: HEK-293T; assay: Multiplex assay against HEK293T; assay type: toxicity, cell-based; conditions: human, 24 h, 10 µM, compound concentration 10 uM, replicate 1;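 as to Population Tubulin-Different-Phenotype (%): share of the cells with healthy nuclei that show this phenotype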
Please enter 1.0 where Population Tubulin-Different-Phenotype (%) is greater than or equal to 50%, and 0.0 where it is lower.

Example entries begin here.
Cl.Cl.NC1(c2ccc(-c3nc4ccn5c(=O)[nH]nc5c4cc3-c3ccccc3)cc2)CCC1 :: 0.0
c1ccc2oc(-c3csc(C4CCN(Cc5nc6ncccc6[nH]5)CC4)n3)cc2c1 :: 0.0
CN(C)C/C=C/C(=O)Nc1cc2c(Nc3ccc(F)c(Cl)c3)ncnc2cc1O[C@H]1CCOC1.O=C(O)/C=C\C(=O)O.O=C(O)/C=C\C(=O)O [AFATINIB DIMALEATE] :: 1.0

Evaluate O=C(O)c1ccc2cc(-c3ccc(O)c(C45CC6CC(CC(C6)C4)C5)c3)ccc2c1 : Population Tubulin-Different-Phenotype (%) at minimum 50%?
0.0

Evaluate COc1cc2c(NC3CCN(C(C)C)CC3)nc(N3CCC(F)(F)CC3)nc2cc1OCCCN1CCCC1 : Population Tubulin-Different-Phenotype (%) at minimum 50%?
1.0

Evaluate Cc1cn(-c2cc(NC(=O)c3ccc4c(c3)CN(c3cncnc3)C[C@@H]4C)cc(C(F)(F)F)c2)cn1 : Population Tubulin-Different-Phenotype (%) at minimum 50%?
1.0

Evaluate COc1cc2c(Nc3ccc(NC(=O)c4ccccc4)cc3)ncnc2cc1OCCCN1CCOCC1 : Population Tubulin-Different-Phenotype (%) at minimum 50%?
0.0

Evaluate Cl.Cl.Nc1ncnc2c1c(-c1cccc(OCc3ccccc3)c1)cn2[C@H]1C[C@@H](CN2CCC2)C1 : Population Tubulin-Different-Phenotype (%) at minimum 50%?
1.0

Evaluate CCC(=O)O[C@]1(C(=O)SCF)[C@H](C)C[C@H]2[C@@H]3C[C@H](F)C4=CC(=O)C=C[C@]4(C)[C@@]3(F)[C@@H](O)C[C@@]21C [FLUTICASONE PROPIONATE] : Population Tubulin-Different-Phenotype (%) at minimum 50%?
1.0

Evaluate CC(=O)c1cc(-c2cc(C(=O)NC3CC3)ccc2C)c2ncccn12 : Population Tubulin-Different-Phenotype (%) at minimum 50%?
0.0

Evaluate CNC(=O)c1cc(Oc2ccc(NC(=O)Nc3cc(C(C)(C)C)nn3-c3ccc4ncccc4c3)c(F)c2)ccn1 : Population Tubulin-Different-Phenotype (%) at minimum 50%?
1.0

---

test system: Fibroblast; assay: Multiplex assay against human fibroblast; type: toxicity, cell-based; conditions: 48 h, 1 µM, compound concentration 1 uM, replicate 1
Please enter true where Population Mitotic Cells (%) is greater than or equal to 50%, and false where it is lower.

Example entries begin here.
CC(C)N1CCC(C)(C)c2cc(C#Cc3ccc(C(=O)O)cc3)ccc21 :: false
Nc1nc2c(c(N3CCNCC3)n1)CCC1=C2[C@@H]2CCCC[C@@H]2O1 :: false
CNc1oc(-c2cccc3ccccc23)nc1C#N :: true
CCCn1c(=O)c2[nH]c(C34CC5CC(CC3C5)C4)nc2n(CCC)c1=O :: true

Evaluate CC(=O)c1cc(-c2cc(C(=O)NC3CC3)ccc2C)c2ncccn12 : Population Mitotic Cells (%) at minimum 50%?
true

Evaluate CCn1c(-c2nonc2N)nc2cnc(Oc3cccc(NC(=O)c4ccc(OCCN5CCOCC5)cc4)c3)cc21 [GSK-269962A] : Population Mitotic Cells (%) at minimum 50%?
false

Evaluate COc1cc2c(NC3CCN(C(C)C)CC3)nc(N3CCC(F)(F)CC3)nc2cc1OCCCN1CCCC1 : Population Mitotic Cells (%) at minimum 50%?
false

Evaluate O=C(O)c1ccc2cc(-c3ccc(O)c(C45CC6CC(CC(C6)C4)C5)c3)ccc2c1 : Population Mitotic Cells (%) at minimum 50%?
false

Evaluate Cc1cc2c(cc1N1C(=O)c3cccc4c(CCCO)ccc(c34)C1=O)n(C)c(=O)n2C : Population Mitotic Cells (%) at minimum 50%?
true

---

system: Fibroblast; assay: Multiplex assay against human fibroblast; assay type: toxicity, cell-based; conditions: 24 h, 1 µM, compound concentration 1 uM, replicate 2
parameter: Population Hoechst High Intensity Objects (%)
Please state the figure in %; there is no need to write the unit.

Entry CCOc1cc(N2CCC(O)CC2)ccc1Nc1ncc2c(n1)N(C1CCCC1)CCC(=O)N2C ; assay system Fibroblast; Population Hoechst High Intensity Objects (%) recorded at 40

Entry CNC(=O)c1cc(Oc2ccc(NC(=O)Nc3cc(C(C)(C)C)nn3-c3ccc4ncccc4c3)c(F)c2)ccn1 [REBASTINIB] ; assay system Fibroblast; Population Hoechst High Intensity Objects (%) recorded at 30

Entry CCn1c(-c2nonc2N)nc2cnc(Oc3cccc(NC(=O)c4ccc(OCCN5CCOCC5)cc4)c3)cc21 [GSK-269962A] ; assay system Fibroblast; Population Hoechst High Intensity Objects (%) recorded at 2

Entry CCCn1c(=O)c2[nH]c(C34CC5CC(CC3C5)C4)nc2n(CCC)c1=O [ROLOFYLLINE] ; assay system Fibroblast; Population Hoechst High Intensity Objects (%) recorded at 5

Entry Cl.Cl.Nc1ncnc2c1c(-c1cccc(OCc3ccccc3)c1)cn2[C@H]1C[C@@H](CN2CCC2)C1 ; assay system Fibroblast; Population Hoechst High Intensity Objects (%) recorded at 6

Entry Cc1cc2c(cc1N1C(=O)c3cccc4c(CCCO)ccc(c34)C1=O)n(C)c(=O)n2C ; assay system Fibroblast; Population Hoechst High Intensity Objects (%) recorded at 3

Entry O=C(O)c1ccc2cc(-c3ccc(O)c(C45CC6CC(CC(C6)C4)C5)c3)ccc2c1 [O-DEMETHYLATED ADAPALENE] ; assay system Fibroblast; Population Hoechst High Intensity Objects (%) recorded at 6

---

test system: Fibroblast; assay: Multiplex assay against human fibroblast; format: toxicity, cell-based; settings: 24 h, 10 µM, compound concentration 10 uM, replicate 1
parameter: Population Apoptotic (%)
Numeric answer plus unit only.

CNC(=O)c1cc(Oc2ccc(NC(=O)Nc3cc(C(C)(C)C)nn3-c3ccc4ncccc4c3)c(F)c2)ccn1 :: 52%
Cc1cn(-c2cc(NC(=O)c3ccc4c(c3)CN(c3cncnc3)C[C@@H]4C)cc(C(F)(F)F)c2)cn1 :: 66%
O=C(O)c1ccc2cc(-c3ccc(O)c(C45CC6CC(CC(C6)C4)C5)c3)ccc2c1 :: 57%
CC(=O)c1cc(-c2cc(C(=O)NC3CC3)ccc2C)c2ncccn12 :: 57%

Then this compound:
Entry CCn1c(-c2nonc2N)nc2cnc(Oc3cccc(NC(=O)c4ccc(OCCN5CCOCC5)cc4)c3)cc21 [GSK-269962A] ; assay system Fibroblast; Population Apoptotic (%) recorded at 57%
